target: recombinant human LTA4 hydrolase (Homo sapiens, UniProt P09960); test: Recombinant Human LTA4 Hydrolase Assay for LTA4 Hydrolase Inhibitor Activity (LTB4 by enzyme-linked immunoassay); settings: read-out: Recombinant Human LTA4 Hydrolase Assay IC50 LTA4H
Sequence (P09960 whole entry): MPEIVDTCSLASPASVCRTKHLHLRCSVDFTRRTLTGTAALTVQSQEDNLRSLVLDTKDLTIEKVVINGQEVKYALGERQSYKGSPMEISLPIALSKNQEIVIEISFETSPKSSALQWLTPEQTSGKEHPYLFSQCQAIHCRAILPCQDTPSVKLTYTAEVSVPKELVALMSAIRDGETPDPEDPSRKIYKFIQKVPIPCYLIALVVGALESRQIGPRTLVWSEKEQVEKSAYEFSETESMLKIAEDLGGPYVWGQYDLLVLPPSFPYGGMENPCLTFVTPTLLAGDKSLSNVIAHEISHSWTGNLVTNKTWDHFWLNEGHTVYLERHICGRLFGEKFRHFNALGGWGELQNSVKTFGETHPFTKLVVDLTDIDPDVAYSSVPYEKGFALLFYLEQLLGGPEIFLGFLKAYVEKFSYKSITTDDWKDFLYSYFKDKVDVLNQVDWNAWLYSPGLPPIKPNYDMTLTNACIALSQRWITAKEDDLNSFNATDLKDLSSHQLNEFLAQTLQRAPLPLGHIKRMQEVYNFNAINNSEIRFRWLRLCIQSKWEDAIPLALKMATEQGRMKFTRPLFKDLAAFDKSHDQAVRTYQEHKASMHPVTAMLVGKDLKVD
Recorded log10 of IC50 for the following molecules
testReadout: log10 of IC50 (log10 of the value in nM)

1) CCOC(=O)CCNCCCCOc1ccc(Cc2ccccc2)cc1; 0.85
2) COc1cccc(Cc2ccc(OCCN3CCCC3)cc2)c1; 2.92
3) CCOC(=O)CNCCCCCOc1ccc(Cc2ccccc2)cc1; 2.40
4) c1nc(Cc2ccc(OCCN3CCCC3)cc2)cs1; 2.28
5) c1ccc(Cc2ccc(OCCN3CCCC3)nc2)cc1; 0.85
6) NC1CCN(CCOc2ccc(Cc3ccccc3)cc2)C1 (stereo not shown); 1.30
7) c1ccc(Cc2ccc(OCCN3CCCC3)cc2)cc1; 1.41
8) CN(CCCOc1ccc(Cc2ccc(F)cc2)cc1)CCC(=O)O; 1.49
9) CCOC(=O)CC(NCCOc1ccc(Cc2ccccc2)cc1)c1cccnc1 (stereo not shown); 4.04
10) Fc1cc(Cc2ccccc2)ccc1OCCN1CCCC1; 1.78
11) c1csc(Cc2ccc(OCCN3CCCC3)cc2)n1; 1.84
12) FC(F)(c1ccccc1)c1ccc(OCCN2CCCC2)cc1; 1.04
13) CCOC(=O)CNCCCCOc1ccc(Cc2ccccc2)cc1; 1.15
14) O=C1CC2CCCC(C1)N2CCOc1ccc(Cc2ccccc2)cc1; 1.99
15) C(=C\c1ccc(OCCN2CCCC2)cc1)/c1ccccc1; 3.13
16) Nc1ccc2c(c1)ncn2CCOc1ccc(Cc2ccccc2)cc1 [Example 362A]; 3.71
17) c1ccc(Cc2ccc(OCCn3cnc4ncccc43)cc2)cc1 [Example 338B]; 0.90
18) c1cncc(Cc2ccc(OCCN3CCCC3)cc2)c1; 1.94
19) COC(=O)CCNCCOc1ccc(Cc2ccccc2)cc1; 2.34
20) c1cc(Cc2ccc(OCCN3CCCC3)cc2)ccn1; 2.80
21) NC(=O)C1CCN(CCOc2ccc(Cc3ccccc3)cc2)CC1 [Example 239]; 3.95
22) COC(=O)CC1CC2CC1CN2CCOc1ccc(Cc2ccccc2)cc1 (stereo not shown); 1.18
23) c1cc(Cc2ccc(OCCN3CCCC3)cc2)co1; 1.89
24) Clc1cc(Cc2ccccc2)ccc1OCCN1CCCC1; 3.09
25) Clc1ccc(Cc2ccc(OCCN3CCCC3)cc2)cc1; 1.78
